From: paper PMC6152724

biological target: LPO purified from bovine milk (Bos taurus); construct: from tissue; host or cells: fresh bovine milk; experiment: LPO inhibition assay (ABTS oxidation by H2O2, absorbance at 412 nm; Lineweaver–Burk plots); assay type: biochemical; details: with respect to ABTS substrate; from Lineweaver–Burk plots
assayEndpoint: Inhibition Type

>>> result("Cc1noc(NS(=O)(=O)c2ccc(NC(=O)c3ccc(O)cc3)cc2)c1C [7e, N-(sulfisoxazole)-p-hydroxybenzamide]")
"Non-competitive"
>>> result("CC(=O)Oc1cc(C(=O)Nc2ccc(S(=O)(=O)Nc3ccccn3)cc2)cc(OC(C)=O)c1OC(C)=O")
"Non-competitive"
>>> result("CC(=O)Oc1cc(C(=O)Nc2ccc(S(N)(=O)=O)cc2)cc(OC(C)=O)c1OC(C)=O")
"Non-competitive"
>>> result("Cc1noc(NS(=O)(=O)c2ccc(N)cc2)c1C [4e, Sulfisoxazole, reference compound]")
"Non-competitive"
>>> result("O=C(Nc1ccc(S(=O)(=O)Nc2ccccn2)cc1)c1ccc(O)cc1 [7d, N-(sulfapyridine)-p-hydroxybenzamide]")
"Competitive"
>>> result("CC(=O)Oc1cc(C(=O)Nc2ccc(S(=O)(=O)Nc3nc(C)cc(C)n3)cc2)cc(OC(C)=O)c1OC(C)=O")
"Non-competitive"
>>> result("Cc1cc(C)nc(NS(=O)(=O)c2ccc(NC(=O)c3ccc(O)cc3)cc2)n1 [7c, N-(sulfamethazine)-p-hydroxybenzamide]")
"Non-competitive"
>>> result("Cc1ccnc(NS(=O)(=O)c2ccc(N)cc2)n1 [4g, Sulfamerazine, reference compound]")
"Non-competitive"
>>> result("CC(=O)Oc1ccc(C(=O)Nc2ccc(S(=O)(=O)Nc3ccccn3)cc2)cc1 [5d, N-(sulfapyridine)-p-acetoxybenzamide]")
"Competitive"
>>> result("Nc1ccc(S(=O)(=O)Nc2ncccn2)cc1 [4b, Sulfadiazine, reference compound]")
"Non-competitive"
>>> result("CC(=O)Oc1cc(C(=O)Nc2ccc(S(=O)(=O)Nc3nccs3)cc2)cc(OC(C)=O)c1OC(C)=O")
"Non-competitive"
>>> result("CC(=O)Oc1ccc(C(=O)Nc2ccc(S(=O)(=O)Nc3nccc(C)n3)cc2)cc1 [5g, N-(sulfamerazine)-p-acetoxybenzamide]")
"Competitive"
>>> result("CC(=O)Oc1ccc(C(=O)Nc2ccc(S(N)(=O)=O)cc2)cc1 [5h, N-(sulfanilamide)-p-acetoxybenzamide]")
"Non-competitive"
>>> result("CC(=O)Oc1cc(C(=O)Nc2ccc(S(=O)(=O)Nc3nnc(C)s3)cc2)cc(OC(C)=O)c1OC(C)=O")
"Non-competitive"
>>> result("O=C(Nc1ccc(S(=O)(=O)Nc2ccccn2)cc1)c1cc(O)c(O)c(O)c1")
"Competitive"
>>> result("NS(=O)(=O)c1ccc(NC(=O)c2cc(O)c(O)c(O)c2)cc1")
"Non-competitive"
>>> result("CC(=O)Oc1ccc(C(=O)Nc2ccc(S(=O)(=O)Nc3ncccn3)cc2)cc1 [5b, N-(sulfadiazine)-p-acetoxybenzamide]")
"Non-competitive"
>>> result("CC(=O)Oc1cc(C(=O)Nc2ccc(S(=O)(=O)Nc3ncccn3)cc2)cc(OC(C)=O)c1OC(C)=O")
"Competitive"
>>> result("Cc1noc(NS(=O)(=O)c2ccc(NC(=O)c3cc(O)c(O)c(O)c3)cc2)c1C")
"Competitive"
>>> result("Nc1ccc(S(=O)(=O)Nc2nccs2)cc1 [4a, Sulfathiazole, reference compound]")
"Non-competitive"
>>> result("NS(=O)(=O)c1ccc(NC(=O)c2ccc(O)cc2)cc1 [7h, N-(sulfanilamide)-p-hydroxybenzamide]")
"Non-competitive"
>>> result("CC(=O)Oc1ccc(C(=O)Nc2ccc(S(=O)(=O)Nc3nc(C)cc(C)n3)cc2)cc1 [5c, N-(sulfamethazine)-p-acetoxybenzamide]")
"Competitive"
>>> result("Cc1ccnc(NS(=O)(=O)c2ccc(NC(=O)c3cc(O)c(O)c(O)c3)cc2)n1")
"Non-competitive"
>>> result("Cc1ccnc(NS(=O)(=O)c2ccc(NC(=O)c3ccc(O)cc3)cc2)n1 [7g, N-(sulfamerazine)-p-hydroxybenzamide]")
"Non-competitive"
>>> result("CC(=O)Oc1ccc(C(=O)Nc2ccc(S(=O)(=O)Nc3nnc(C)s3)cc2)cc1 [5f, N-(sulfamethizole)-p-acetoxybenzamide]")
"Non-competitive"
>>> result("Nc1ccc(S(N)(=O)=O)cc1 [4h, Sulfanilamide, reference compound]")
"Competitive"
>>> result("CC(=O)Oc1cc(C(=O)Nc2ccc(S(=O)(=O)Nc3nccc(C)n3)cc2)cc(OC(C)=O)c1OC(C)=O")
"Non-competitive"
>>> result("O=C(Nc1ccc(S(=O)(=O)Nc2nccs2)cc1)c1ccc(O)cc1 [7a, N-(sulfathiazole)-p-hydroxybenzamide]")
"Non-competitive"
>>> result("Cc1nnc(NS(=O)(=O)c2ccc(N)cc2)s1 [4f, Sulfamethizole, reference compound]")
"Non-competitive"
